Target: HLA-B1501 (human)
Assay: competition with radiolabeled probe peptide for purified HLA, plate capture, cpm
MEASUREMENT_TYPE: IC50 (nM)
Form entry: value (nM) — number only.

IC50 reading for AVINTTCNYGQ (modifications not checked) [Mtb8.4 5-15 peptide …] : 10

From: patent US20110014224A1
